The following molecules are shown together with reported MCV values.
Species: Rattus norvegicus
Experiment: Open TG-GATES - Regimen: Daily Repeat
Type: toxicity, organism-based, Sprague-Dawley
Set-up: regimen Daily Repeat, gender Male, age 6 weeks
Settings: in vivo, po, 0 mg/kg, […], tissue Blood, route gavage, dose level Control, time 14 day
Number in fL, nothing else.

# annotated cases, reported MCV shown
molecule | MCV, fL
CC[C@H]1[C@@H]2C[C@H]3[C@@H]4N(C)c5ccccc5[C@]45C[C@@H]([C@@H]2[C@H]5O)N3[C@@H]1O [AJMALINE] | 62.5
CCc1oc2ccccc2c1C(=O)c1cc(Br)c(O)c(Br)c1 [BENZBROMARONE] | 62.3
CN(C)CCC=C1c2ccccc2COc2ccccc21 [DOXEPIN] | 61.1
CC1=C(CC(=O)O)c2cc(F)ccc2/C1=C\c1ccc([S+](C)[O-])cc1 (stereo unspecified) | 61.5

Enquiry: I'd like to know its MCV. The molecule in question is CCC1(c2ccccc2)C(=O)NC(=O)NC1=O [PHENOBARBITAL]
Return: 61.9

Enquiry: Returns the measured MCV for the input molecule. Input: CN(C)C(=N)N=C(N)N [METFORMIN]
Return: 60.5

----------
Species: Rattus norvegicus
Assay: Open TG-GATES - Regimen: Daily Repeat
Type: toxicity, organism-based, Sprague-Dawley
Parameters: regimen Daily Repeat, gender Male, age 6 weeks
Conditions: in vivo, po, 0 mg/kg, […], tissue Blood, route gavage, dose level Control, time 7 day
measured_quantity: Ret (%)
Note: unit % is implicit; provide only the numeric part.

Some solved cases for reference:
molecule | reading_unit | Ret
CCc1oc2ccccc2c1C(=O)c1cc(Br)c(O)c(Br)c1 [BENZBROMARONE] | % | 5.5
OCCOCCN1CCN(C(c2ccccc2)c2ccc(Cl)cc2)CC1 (stereo unspecified) [HYDROXYZINE] | % | 6.1
CN(C)C(=N)N=C(N)N [METFORMIN] | % | 6
O=NN(CCCl)C(=O)NC1CCCCC1 [LOMUSTINE] | % | 7.2
CC(C)N(CCC(C(N)=O)(c1ccccc1)c1ccccn1)C(C)C (stereo unspecified) [DISOPYRAMIDE] | % | 6.7
CC1=C(CC(=O)O)c2cc(F)ccc2/C1=C\c1ccc([S+](C)[O-])cc1 (stereo unspecified) | % | 5.9
CN(C)CCC=C1c2ccccc2COc2ccccc21 [DOXEPIN] | % | 5.2
ClC(Cl)(Cl)Cl [CARBON TETRACHLORIDE] | % | 6.1
CC[C@H]1[C@@H]2C[C@H]3[C@@H]4N(C)c5ccccc5[C@]45C[C@@H]([C@@H]2[C@H]5O)N3[C@@H]1O [AJMALINE] | % | 7
CCCCc1oc2ccccc2c1C(=O)c1cc(I)c(OCCN(CC)CC)c(I)c1 [AMIODARONE] | % | 5.1

Okay, next one:
Enquiry: Name the reported Ret value associated with the molecule CCC1(c2ccccc2)C(=O)NC(=O)NC1=O [PHENOBARBITAL]
Return: 6.1

----------
Species on record: Rattus norvegicus
Assay: Open TG-GATES - Regimen: Single
Type: toxicity, organism-based, Sprague-Dawley
Design: regimen Single, gender Male, age 6 weeks
Conditions: in vivo, po, 0 mg/kg, 6 h, tissue Blood, route gavage, dose level Control
measured_quantity: PT (s)
Field: numeric (s). Do not append units.

Sample answers from the record:
molecule | endpoint_value
CC1=C(CC(=O)O)c2cc(F)ccc2/C1=C\c1ccc([S+](C)[O-])cc1 (stereo not given) | 14.2
CCc1oc2ccccc2c1C(=O)c1cc(Br)c(O)c(Br)c1 [BENZBROMARONE] | 12.2
CN(C)C(=N)N=C(N)N [METFORMIN] | 12.2
O=NN(CCCl)C(=O)NC1CCCCC1 [LOMUSTINE] | 12.2

API: the following record is the query input.
Enquiry: Request the reported PT associated with OCCOCCN1CCN(C(c2ccccc2)c2ccc(Cl)cc2)CC1 (stereo not given) [HYDROXYZINE]
Return: 15.3
